# Tested on: substance P-induced scratching behavior
# Test method notes: Inhibitory effect on substance P-induced scratching behavior in mice (MicroAct automatic detection)
# Format: in vivo, mouse
# Condition label: Mus musculus, ip, read-out: Inhibition rate
# Excerpt: Substance P-induced scratching behavior in mice which is an intractable pruritus model was induced by the method described in a known document (Togashi et al., European Journal of Pharmacology, 2002, Vol. 435, p. 259 and the like). Further, evaluation of the scratching behavior was objectively carried out by automatic detection using MicroAct (NeuroScience, Inc.) based on the method described in a known document (Hashimoto et al., Allergology International, 2004, Vol. 53, p. 349). […]
Structures can show the parent of a compound that is named as a salt.
Some compounds, each annotated with its measured inhibition at 1 mg/kg.
Please respond with the number in % and leave the unit unwritten.

Recorded results for 3 compounds are shown here.
[[record]]
compound = "Cl.O=C(N[C@H]1CN2CCC1CC2)c1ccc2c(c1)OCCO2 [Reference Example 10, hydrochloride]"
experimental_system = "substance P-induced scratching behavior"
unit_string = "%"
test_result = 58

[[record]]
compound = "CN1C[C@@H]2CN(c3ccc(-c4ccccc4)nn3)C[C@@H]2C1 [Reference Example 7, fumarate]"
experimental_system = "substance P-induced scratching behavior"
unit_string = "%"
test_result = 79

[[record]]
compound = "Cl.O=C(N[C@H]1CN2CCC1CC2)c1ccc(Cl)cc1 [PNU-282987 hydrate, hydrochloride, reference compound]"
experimental_system = "substance P-induced scratching behavior"
unit_string = "%"
test_result = 72


Please examine the following record next.
**Query** What does the record list as inhibition at 1 mg/kg for Cl.O=C(Oc1ccc(Br)cc1)N1CCN2CCC1CC2 [Reference Example 4, hydrochloride] ?
**Result** 32

---

# Test system: substance P-induced scratching behavior
# Test method notes: Inhibitory effect on substance P-induced scratching behavior in mice (MicroAct automatic detection)
# Type: in vivo, mouse
# Condition label: i.p., 3 mg/kg; substance P 250 nmol/site; counted for 15 minutes
Where a name gives a salt, the structure may show the parent alone.
Experimental readout: Number of scratching behavior (means ± standard error)
// return just the number, without any unit appended

Recorded results for 2 compounds are shown here.
[[record]]
compound = "Cl.O=C(Oc1ccc(Br)cc1)N1CCN2CCC1CC2 [Reference Example 4]"
test_result = 59

[[record]]
compound = "c1cnc2cc3c(cc2n1)C1CNCC3C1 [Varenicline tartrate, reference compound]"
test_result = 54


**Query** What does the record list as Number of scratching behavior (means ± standard error) for O=C(N[C@@H]1C2CCN(CC2)[C@H]1Cc1cccnc1)c1cc2ccccc2o1 [Reference Example 2] ?
**Result** 97

**Query** What does the record list as Number of scratching behavior (means ± standard error) for CN1C[C@@H]2CN(c3ccc(-c4ccccc4)nn3)C[C@@H]2C1 [Reference Example 7, fumarate] ?
**Result** 52

**Query** What does the record list as Number of scratching behavior (means ± standard error) for Cc1ccc2oc(N3CCN4CCC3CC4)nc2n1.Cl [Reference Example 5] ?
**Result** 62

**Query** What does the record list as Number of scratching behavior (means ± standard error) for Cl.O=C(CCCCN1CCOCC1)Nc1ccc(-c2cccnc2)cc1 [Reference Example 6] ?
**Result** 78
